# System: 3rd-instar larvae of Yponomeuta evonymallus (Linnaeus)
# method: Synergism screening (Bliss) of I-72 + pyrethroid insecticides, Example 37, Table 37
# Type: in vivo
# experimentalParameters: single pesticide, concentration 1 mg/L; leaf dipping; 72 hours
# Description: Test target: 3rd-instar larvae of Yponomeuta evonymallus (Linnaeus). Preparation of the pesticide solution: according to different test requirements, the test samples were accurately weighed respectively with an electronic analytical balance. […] The synergism of the mixture was evaluated by the Bliss method. […]
Reported Measured mortality rate (%) by item:
Report as a plain number; the unit % is understood.

Answered examples (5):
CC1(C)C(C=C(Cl)Cl)C1C(=O)OC(C#N)c1cccc(Oc2ccccc2)c1 (stereo not drawn) [Alpha-cypermethrin]
19.4
CC1(C)C(C=C(Cl)Cl)C1C(=O)OC(C#N)c1ccc(F)c(Oc2ccccc2)c1 (stereo not drawn) [Beta-cyfluthrin]
21.4
CC(C)[C@H](C(=O)O[C@H](C#N)c1cccc(Oc2ccccc2)c1)c1ccc(Cl)cc1 [Esfenvalerate]
13.8
CC1(C)C(C(=O)OC(C#N)c2cccc(Oc3ccccc3)c2)C1(C)C (stereo not drawn) [Fenpropathrin]
22.6
CC1(C)[C@H](C=C(Cl)Cl)[C@H]1C(=O)O[C@H](C#N)c1cccc(Oc2ccccc2)c1 [Theta-cypermethrin]
16.7

Please look at the following compound next.
Input line: Dear colleague, I am looking for the recorded Measured mortality rate (%) of the following compound: CC1(C)C(C=C(Cl)Cl)C1C(=O)OC(C#N)c1ccc(F)c(Oc2ccccc2)c1 (stereo not drawn) [Cyfluthrin]
Output line: 18.8

Data provenance: patent US20260198495A1
